Molecular target: Human HER3, endogenous, on human cancer cell lines (SK-Br-3, MCF7, BT-474) (human, UniProt P21860 20-1342)
Sequence (P21860 20-1342): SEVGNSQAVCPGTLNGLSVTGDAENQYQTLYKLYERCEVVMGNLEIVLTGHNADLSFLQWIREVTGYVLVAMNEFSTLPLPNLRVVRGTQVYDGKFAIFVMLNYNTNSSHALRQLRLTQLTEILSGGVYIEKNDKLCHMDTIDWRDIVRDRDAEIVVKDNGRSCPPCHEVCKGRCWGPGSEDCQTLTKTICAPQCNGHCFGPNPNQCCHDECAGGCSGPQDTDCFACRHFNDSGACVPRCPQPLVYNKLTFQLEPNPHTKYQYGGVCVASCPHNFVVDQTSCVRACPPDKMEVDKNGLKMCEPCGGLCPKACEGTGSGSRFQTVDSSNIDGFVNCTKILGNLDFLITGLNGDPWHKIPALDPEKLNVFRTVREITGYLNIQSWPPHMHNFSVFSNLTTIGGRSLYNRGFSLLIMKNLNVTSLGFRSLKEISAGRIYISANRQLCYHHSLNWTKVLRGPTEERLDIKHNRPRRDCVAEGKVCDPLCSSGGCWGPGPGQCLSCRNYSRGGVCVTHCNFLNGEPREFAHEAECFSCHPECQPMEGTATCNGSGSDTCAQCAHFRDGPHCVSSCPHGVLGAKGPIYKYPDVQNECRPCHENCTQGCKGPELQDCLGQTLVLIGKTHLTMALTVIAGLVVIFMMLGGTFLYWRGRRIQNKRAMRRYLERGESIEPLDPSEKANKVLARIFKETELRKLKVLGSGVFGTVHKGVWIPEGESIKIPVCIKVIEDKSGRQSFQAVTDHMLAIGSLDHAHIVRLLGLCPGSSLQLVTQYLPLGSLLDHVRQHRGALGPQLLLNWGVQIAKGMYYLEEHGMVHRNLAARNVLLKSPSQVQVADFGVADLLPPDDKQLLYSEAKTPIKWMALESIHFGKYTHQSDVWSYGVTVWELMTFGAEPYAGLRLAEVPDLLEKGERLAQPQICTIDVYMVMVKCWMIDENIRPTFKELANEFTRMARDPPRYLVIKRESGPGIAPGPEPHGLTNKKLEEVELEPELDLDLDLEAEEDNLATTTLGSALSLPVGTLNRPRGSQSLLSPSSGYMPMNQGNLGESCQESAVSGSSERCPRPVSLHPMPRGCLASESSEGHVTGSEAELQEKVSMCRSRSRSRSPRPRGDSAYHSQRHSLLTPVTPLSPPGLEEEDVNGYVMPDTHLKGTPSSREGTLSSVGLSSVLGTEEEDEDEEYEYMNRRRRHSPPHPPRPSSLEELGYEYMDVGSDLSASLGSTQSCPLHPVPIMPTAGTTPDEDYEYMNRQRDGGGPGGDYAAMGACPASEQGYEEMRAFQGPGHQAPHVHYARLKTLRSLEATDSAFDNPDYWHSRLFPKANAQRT
Test: cell-based or functional assay
Value type: SK-Br-3 pHER3 % inhibition

Binder: MOR13754 (antibody, human IgG1, kappa, V domains shown, tested as IgG) VH: QVQLVQSGAEVKKPGESLKISCKGSGYSFTSYWVAWVRQMPGKGLEWMGIIYPGGSDTIYSPSFQGQVTISADKSISTAYLQWSSLKASDTAMYYCARVHIIQPPSAWSYNAMDVWGQGTLVTVSS VL: DIQMTQSPSSLSASVGDRVTITCRASQSISTYLNWYQQKPGKAPKLLIFGASNLQSGVPSRFSGSGSGTDFTLTISSLQPEDFATYYCQQSITELFTFGQGTKVEIKR
SK-Br-3 pHER3 % inhibition: 63%

Here is the next item to consider.
Exercise: Record request: SK-Br-3 pHER3 % inhibition value, item MOR14536 (antibody, human IgG1, kappa, V domains shown, tested as IgG) VH: EVQLVQSGAEVKKPGESLKISCKGSGYSFSNYWIAWVRQMPGKGLEWMGIIYPGQSDTIYSPSFQGQVTISADKSISTAYLQWSSLKASDTAMYYCARVHIIQPPSAWSYNAMDVWGQGTLVTVSS VL: DIQMTQSPSSLSASVGDRVTITCRASQSISTYLNWYQQKPGKAPKLLIYGASNLQSGVPSRFSGSGSGTDFTLTISSLQPEDFATYYCQQSITELFTFGQGTKVEIKR
Key: 76%
